Target: T1, human CD137-Fc (human, biotin-labeled)
T1 construct: if 90 already holds the Fc, drop the second piece; also called biotin-labeled human CD137 fused to human IgG1 Fc fragment; biotin-human CD137-Fc; not shown: human IgG1 Fc fragment
T1 sequence (chain, as listed by the source): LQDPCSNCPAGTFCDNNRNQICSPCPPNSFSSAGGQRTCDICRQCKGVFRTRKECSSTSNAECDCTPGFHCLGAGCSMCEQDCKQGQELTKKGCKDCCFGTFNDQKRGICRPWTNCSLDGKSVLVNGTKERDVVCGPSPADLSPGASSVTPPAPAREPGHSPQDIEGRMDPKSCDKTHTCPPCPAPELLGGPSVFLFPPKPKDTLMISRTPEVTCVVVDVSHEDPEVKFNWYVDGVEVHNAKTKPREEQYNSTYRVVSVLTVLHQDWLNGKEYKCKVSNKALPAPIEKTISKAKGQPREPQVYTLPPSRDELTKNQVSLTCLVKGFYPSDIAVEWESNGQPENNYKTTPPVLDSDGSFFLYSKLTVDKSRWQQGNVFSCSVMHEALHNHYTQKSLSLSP
Experiment: bead ELISA on biotin-human CD137-Fc, 0 pmol free CD3e peptide
measure_name: ELISA signal
API doc: respond with a numeric literal and nothing else, no unit.

Observe how each entry below is paired with its result.
dBBDu197 (antibody, V domains shown, Human IgG1; light chain GLS3000 (kappa)) VH: QVQLVESGGGLVQPGRSLRLSCAASGFTFSNAWMHWVRQAPGKGLEWVAQIKDRSNAYAAYYAPSVKGRFTISRDDSKNSIYLQMNSLKTEDTAVYYCHYVHYASASTVLPAFGVDAWGQGTTVTVSS VL: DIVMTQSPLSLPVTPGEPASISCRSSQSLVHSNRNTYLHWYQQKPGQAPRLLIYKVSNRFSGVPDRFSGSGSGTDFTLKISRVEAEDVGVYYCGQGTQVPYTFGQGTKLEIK | 54400
dBBDu202 (antibody, V domains shown, Human IgG1; light chain GLS3000 (kappa)) VH: QVQLVESGGGLVQPGRSLRLSCAASGFTFSNAWMHWVRQAPGKGLEWVAQIKDKGNAYAAYYAPSVKGRFTISRDDSKNSIYLQMNSLKTEDTAVYYCHYVHYSAASTVLPAFGVDAWGQGTTVTVSS VL: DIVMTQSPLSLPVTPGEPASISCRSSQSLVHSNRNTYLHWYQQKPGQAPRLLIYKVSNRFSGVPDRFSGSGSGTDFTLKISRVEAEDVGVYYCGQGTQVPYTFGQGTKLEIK | 12100
DADU01_3#001 (antibody, V domains shown, Human IgG1; light chain GLS3000 (kappa); also called dBBDu126; dBBDu_126) VH: QVQLVESGGGLVQPGRSLRLSCAASGFTFSIAWMHWVRQAPGKGLEWVAQIKDRVNAYEAYYAPSVKGRFTISRDDSKNSIYLQMNSLKTEDTAVYYCRYVHYASYYDLLGYGGVDAWGQGTTVTVSS VL: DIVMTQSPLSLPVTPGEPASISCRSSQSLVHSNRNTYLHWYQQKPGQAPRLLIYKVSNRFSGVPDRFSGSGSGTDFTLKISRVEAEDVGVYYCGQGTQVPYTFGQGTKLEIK | 116000
dBBDu186 (antibody, V domains shown, Human IgG1; light chain GLS3000 (kappa)) VH: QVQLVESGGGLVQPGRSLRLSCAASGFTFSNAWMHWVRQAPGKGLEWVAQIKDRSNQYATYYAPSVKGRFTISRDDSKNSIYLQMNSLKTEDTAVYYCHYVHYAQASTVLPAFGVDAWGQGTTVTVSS VL: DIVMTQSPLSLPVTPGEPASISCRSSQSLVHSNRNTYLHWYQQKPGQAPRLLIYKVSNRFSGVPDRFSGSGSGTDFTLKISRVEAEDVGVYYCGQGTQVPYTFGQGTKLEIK | 34800

Let's switch to this binder now.
Measured ELISA signal, dBBDu139 (antibody, V domains shown, Human IgG1; light chain GLS3000 (kappa)) VH: QVQLVESGGGLVQPGRSLRLSCAASGFTFSNAWMHWVRQAPGKGLEWVAQIKDRGNAYNAYYAESVKGRFTISRDDSKNSIYLQMNSLKTEDTAVYYCRFVHYRHPLLHIQYGVDAWGQGTTVTVSS VL: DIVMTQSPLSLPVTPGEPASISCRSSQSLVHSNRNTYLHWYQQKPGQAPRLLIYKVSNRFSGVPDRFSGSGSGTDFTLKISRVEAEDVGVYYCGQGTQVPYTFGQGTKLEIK : 9440

Values compiled from patent US20210388087A1.
